experiment: Substrate depletion approach, in vitro clearance (CLint) with rat liver S9; format: in vitro ADME; settings: male, Sprague-Dawley, rat, liver S9 fraction, pH 7.4, male Sprague–Dawley rat liver S9, individual co-factor NADPH, 3 µM substrate
ASSAY_READOUT: CLint in liver S9 at 3 µM (µL/min/mg)
Express it in µL/min/mg; write the number only.

> print(dat)
                                   compound              assay.readout  reported.value
1  C[C@]12CC[C@@H]3c4ccc(O)cc4CC[C@H]3[C@@H]1CC[C@@H]2O [E2, 17β-estradiol]  CLint in liver S9 at 3 µM             155

Next compound, CLint in liver S9 at 3 µM to be filled in.
Return reported CLint in liver S9 at 3 µM; argument: CC(C)(c1ccc(O)cc1)c1ccc(O)cc1 [BPA, bisphenol A]
60
